Values were extracted from patent US20120029085A1.

- EXPERIMENTAL_PROTOCOL: Percent protonated (RNH+) and unprotonated (RN) amine form of local anesthetics as a function of pH
- Format: physicochemical
- CONDITION_SET: pH 6.5, unprotonated form
READOUT: % RN at pH 6.5 (%)

| MOLECULE | % RN at pH 6.5 / % |
| --- | --- |
| CCN(CC)CCOC(=O)c1ccc(N)cc1Cl [Chloroprocaine] | 0.63 |

A. CCCCN1CCCCC1C(=O)Nc1c(C)cccc1C (stereo not drawn) [Bupivacaine]
B. CCN(CC)CCOC(=O)c1ccc(N)cc1 [Procaine]
C. CCCN(CC)C(CC)C(=O)Nc1c(C)cccc1C (stereo not drawn) [Etidocaine]
Query string: // ascending sort on recorded % RN at pH 6.5 Please respond with the labels ordered as the question requires.
Result string: B, A, C
(B: 0.40%, A: 2.45%, C: 5.94%)

A. CCCN1CCCC[C@H]1C(=O)Nc1c(C)cccc1C [Ropivacaine]
B. CCCCOc1cc(C(=O)NCCN(CC)CC)c2ccccc2n1 [Dibucaine]
Query string: Field: lower % RN at pH 6.5 | Options: A / B Answer = label.
Result string: B
(B: 0.50%, A: 2.45%)
